FYI, the data here is from ChEMBL document CHEMBL1201862.

Tested on: SNB-75
Test: NCI tumour cell line growth inhibition, 48 h
The source made the active and inactive calls. No stated cut-off is given here; in the data, active = GI50 up to about 1.1 µM and inactive = higher.
// allowed return values: true for active, false for inactive

Hi, sorry to bother you, what did the test record for `Cc1n(Cc2ccccc2)c2c([n+]1C)C(=O)c1ccccc1C2=O` ?
true

Record request — test call for Clc1ccc(C2NN=C3c4ccccc4OCC32)cc1 (stereo not given)
false

----------
Reported GI50 values follow for various molecules
System: OVCAR-5
Experiment: NCI tumour cell line growth inhibition, 48 h
Activity calls are given as the source filed them. Cut-off read from the data, not from the text of the source: active = GI50 up to about 1.1 µM and inactive = higher.

1) N=C1c2ccccc2C(=O)c2c(NCCNCCO)ccc(O)c21    16 µM (inactive)
2) CCCC(=O)NC(C(=O)OCC)(N1CCOCC1)C(F)(F)F (stereo not given)    > 100 µM (inactive)
3) COC(=O)C1=C(C(=O)OC)C2(C)Nc3ccccc3C2=C(c2ccccc2)C1 (stereo not given)    24.5 µM (inactive)
4) CC1(C)CCC[C@@]2(C)C1CC[C@@]1(CO)O[C@H](C3=CC(=O)OC3O)C[C@H]12 (stereo not given in full)    22.8 µM (inactive)
5) CC[P+](c1ccccc1)(N(C)C)N(C)C    > 100 µM (inactive)

In plain terms, CC(C)C(/N=C1\CC2CCC1(C(=O)Nc1ccccc1O)C2(C)C)c1ccccc1 (stereo not given) has a documented GI50 of > 10 µM (inactive)

The reported GI50 of the molecule CC1=CC[C@H](C(C)C)C(C(O)[C@@H](C)O[Si](c2ccccc2)(c2ccccc2)C(C)(C)C)C1=O (stereo not given in full) was 18.9 µM (inactive)

Query CC(=O)OCC1OC(n2ccc(=O)[nH]c2=O)C(OC(C)=O)C(OC(C)=O)C1OC(C)=O (stereo not given) yields GI50 of > 100 µM (inactive)

GI50 recorded for this molecule, `Cc1cccc(/C=N/NC(=S)NCCc2ccccn2)n1` , is 46.7 µM (inactive)

Form: molecule = CCC(C)C(=O)OCC(=O)c1ccc(-c2ccccc2)cc1 (stereo not given) ; GI50 = > 100 µM (inactive)
